Recorded values, source patent US20200347144A1.

molecular target: T1, human 4-1BB, full length, on transfected cells (human, UniProt Q07011 24-255); test: FACS, CHOK1-h4-1BB cells; Ab 2 ug/ml
T1 construct: whole, on cells; also called CHOK1-h4-1BB
T1 sequence (Q07011 24-255): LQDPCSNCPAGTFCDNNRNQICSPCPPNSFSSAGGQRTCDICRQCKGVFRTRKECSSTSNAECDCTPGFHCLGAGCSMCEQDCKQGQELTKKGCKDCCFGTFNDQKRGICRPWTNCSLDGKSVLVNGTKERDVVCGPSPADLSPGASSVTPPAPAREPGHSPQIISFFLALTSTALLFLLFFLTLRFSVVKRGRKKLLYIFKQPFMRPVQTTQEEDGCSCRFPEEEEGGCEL
measured endpoint: average fluorescence intensity
I'd appreciate it if you included the unit after the number.

Field request: average fluorescence intensity | item: 100F3C4 (antibody, V domains shown) VH: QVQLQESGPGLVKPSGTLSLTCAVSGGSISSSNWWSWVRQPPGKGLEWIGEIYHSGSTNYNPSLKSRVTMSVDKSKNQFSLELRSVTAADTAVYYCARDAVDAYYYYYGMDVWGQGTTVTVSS VL: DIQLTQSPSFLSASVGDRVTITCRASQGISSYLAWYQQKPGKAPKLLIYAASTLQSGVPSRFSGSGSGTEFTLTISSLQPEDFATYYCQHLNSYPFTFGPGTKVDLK
390 MFI
